Each item that follows carries a reported EC50.
- Tested system: Protein S100-A4 (Homo sapiens)
- Sequence (P26447 whole entry, the tested form may be a part): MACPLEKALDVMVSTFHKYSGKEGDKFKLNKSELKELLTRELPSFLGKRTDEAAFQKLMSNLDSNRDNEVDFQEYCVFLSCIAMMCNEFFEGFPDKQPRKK
- Procedure details: Binding affinity to S100A4 (unknown origin) assessed as inhibition of S100A4/myosin-2A interaction using fluorescein-tagged myosin-2A peptide (1908 to 1923 residues) by fluorescence polarization assay

-- ask Identify the measured EC50 of `O=C1c2ccccc2-c2ccccc2C1(Cl)Cl` for Protein S100-A4 (Homo sapiens).
-- reply 2.5 to 4.8 µM

-- ask Identify the measured EC50 of `O=C1C(=O)c2cc(Cl)ccc2-c2ccc(Cl)cc21` for Protein S100-A4 (Homo sapiens).
-- reply 8.1 to 8.7 µM

-- ask Identify the measured EC50 of `O=C1C(=O)c2cc([N+](=O)[O-])ccc2-c2ccccc21` for Protein S100-A4 (Homo sapiens).
-- reply 0.5 to 2 µM
